test: Plasma stability of payloads and linker-payloads, monkey plasma; assay type: in vitro ADME; details: pooled plasma, pH 7.4, Table 5A, monkey plasma, tested time C (3 days), read-out: plasma stability T½ (hr), monkey
measured-metric: half-life at 2 µM

# input Answer with the recorded half-life at 2 µM for the molecule listed here: CCc1cc(OCCCCn2cc(COCCOCCOCCOCCOCCOCCOCCOCCN)nn2)ccc1-c1ccc(C[C@H](NC(=O)[C@H](CC(=O)O)NC(=O)[C@H](CO)NC(=O)[C@@H](NC(=O)C(C)(Cc2ccccc2F)NC(=O)[C@@H](NC(=O)CNC(=O)[C@H](Cc2nn[nH]n2)NC(=O)C(C)(C)C(=O)NCCc2cnc[nH]2)[C@@H](C)O)[C@@H](C)O)C(=O)N[C@@H](CCCc2cc(C)cc(C)c2)C(N)=O)cc1 (stereo partly shown)
# output > 49.4 h
